# credit: ChEMBL document CHEMBL4400572

Protocol text: n-Octanol/water partition coefficient, log P of the compound by RP-HPLC analysis
Format: physicochemical
Endpoint: logP

(1) Cc1c(Cl)cccc1Cl
(2) OC/C=C/c1ccccc1
// returns 1 or 2 , whichever has the lower logP Reply with the label of the item you choose.
2
(2: 1.9, 1: 4.29)

* * *

Protocol text: Permeability of the compound assessed as ratio of Kin to Kout by PAMPA
Type: ADME
Endpoint: Ratio

Compound	Numeric value
CO/C1=C\C(C)=C\[C@@H](C)[C@@H](O)[C@@H](C)C/C(C)=C/C=C/[C@H](OC)[C@@H]([C@@H](C)[C@@H](O)[C@H](C)[C@@]2(O)C[C@@H](O)[C@H](C)[C@@H](C(C)C)O2)OC1=O [BAFILOMYCIN A1]	1170

(1) CO/C1=C\C(C)=C\C[C@@H](O)CC/C(C)=C/C=C/[C@H](OC)[C@@H]([C@@H](C)[C@@H](O)[C@H](C)[C@@]2(O)C[C@@H](O)[C@H](C)[C@@H](C(F)(F)F)O2)OC1=O
(2) CO/C1=C\C(C)=C\[C@@H](C)[C@@H](O)[C@@H](C)C/C(C)=C/C=C/[C@H](OC)[C@@H]([C@@H](C)[C@@H](O)[C@H](C)[C@@]2(O)C[C@@H](O)[C@H](C)[C@@H](C(F)(F)F)O2)OC1=O
// returns 1 or 2 , whichever has the lower Ratio Reply with the label of the item you choose.
1
(1: 143, 2: 393)

* * *

Protocol text: n-Octanol/water partition coefficient, log P of the compound by UV-RP-HPLC analysis
Format: physicochemical
Endpoint: logP

Compound	Endpoint	Numeric value
CO/C1=C\C(C)=C\[C@@H](C)[C@@H](O)[C@@H](C)C/C(C)=C/C=C/[C@H](OC)[C@@H]([C@@H](C)[C@@H](O)[C@H](C)[C@@]2(O)C[C@@H](O)[C@H](C)[C@@H](C(C)C)O2)OC1=O [BAFILOMYCIN A1]	logP	4.74
CO/C1=C\C(C)=C\C[C@@H](O)CC/C(C)=C/C=C/[C@H](OC)[C@@H]([C@@H](C)[C@@H](O)[C@H](C)[C@@]2(O)C[C@@H](O)[C@H](C)[C@@H](C(F)(F)F)O2)OC1=O	logP	2.81
CO/C1=C\C(C)=C\[C@@H](C)[C@@H](O)[C@@H](C)C/C(C)=C/C=C/[C@H](OC)[C@@H]([C@@H](C)[C@@H](O)[C@H](C)[C@@]2(O)C[C@@H](O)[C@H](C)[C@@H](C(F)(F)F)O2)OC1=O	logP	4.54
Cc1ccc(C(=O)c2ccc(C)cc2)cc1	logP	3.84

* * *

Protocol text: Permeability of the compound by PAMPA
Endpoint: Papp (nm/s)
Use nm/s as the unit, but write only the number.

State, in one line, measured Papp of Cn1c(=O)c2[nH]cnc2n(C)c1=O.O
0.848
